These data points were gathered from patent US10059713B2.

molecular target: human GPR43 (Homo sapiens (Human), UniProt O15552); test: Ca-Flux functional assay: determination of agonist/positive allosteric modulator (PAM) activity; conditions: CHO-K1 Gα16 cells stably expressing human GPR43; compound added with EC20 sodium acetate; intracellular Ca2+ by FLIPR; does not distinguish agonist from PAM
Sequence (O15552 whole entry): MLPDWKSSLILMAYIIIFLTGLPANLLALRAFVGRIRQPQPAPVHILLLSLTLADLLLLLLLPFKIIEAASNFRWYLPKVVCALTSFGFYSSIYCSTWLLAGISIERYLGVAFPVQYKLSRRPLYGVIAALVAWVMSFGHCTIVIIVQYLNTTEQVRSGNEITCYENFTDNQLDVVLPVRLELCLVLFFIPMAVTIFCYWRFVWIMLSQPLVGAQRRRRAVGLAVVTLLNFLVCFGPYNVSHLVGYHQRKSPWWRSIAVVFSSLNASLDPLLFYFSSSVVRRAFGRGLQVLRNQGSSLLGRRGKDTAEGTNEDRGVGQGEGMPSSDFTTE
We begin with a simple list: items and their reported pEC50.
By convention, pEC50 is the negative base-10 log of a molar concentration.

The cases that follow already have their pEC50 on record.
Task item: Sample Cc1nc(C2CCCCC2)c2[nH]c(N)c(S(=O)(=O)c3ccccc3)c2n1 [Example 40] — what was its pEC50?
Reply: 7.26

Task item: What does the record list as pEC50 for Cc1nc(N2CCO[C@@H](C(F)(F)F)C2)c2[nH]c(N)c(S(=O)(=O)c3ccccc3F)c2n1 [Example 289] ?
Reply: 9.00

Task item: Reported pEC50 for Cc1nc(OCC2CC2(C)C)c2[nH]c(N)c(S(=O)(=O)c3ccccc3)c2n1 (centres unmarked) [Example 245] : what is it?
Reply: 7.24

Task item: Which pEC50 value belongs to Nc1[nH]c2c(N3CCOC(C(F)(F)F)C3)ncnc2c1S(=O)(=O)c1ccccc1F (centres unmarked) [Example 302] ?
Reply: 8.70

Task item: What value of pEC50 has been reported for the following molecule? Cc1cc(F)ccc1S(=O)(=O)c1c(N)[nH]c2c(N3CCOC(C)C3)ncnc12 (centres unmarked) [Example 178]
Reply: 6.17

Task item: State the recorded pEC50 for this entry: COc1cccc(S(=O)(=O)c2c(N)[nH]c3c(N4CCOC(C)C4)ncnc23)c1 (centres unmarked) [Example 154]
Reply: 7.33

Task item: Sample COCC1CCN(c2ncnc3c(S(=O)(=O)c4ccccc4)c(N)[nH]c23)CC1 [Example 112] — what was its pEC50?
Reply: 6.09

Task item: For Cc1nc(N2CCO[C@@H](C(F)(F)F)C2)c2[nH]c(N)c(S(=O)(=O)c3cc(F)ccc3F)c2n1 [Example 291] , what is its reported pEC50?
Reply: 8.52

Task item: Quick check: pEC50 of Nc1[nH]c2c(N3CCC(F)(F)C3)ncnc2c1S(=O)(=O)c1ccccc1 [Example 29] ?
Reply: 6.40

Task item: Looking for the measured pEC50 of CC1CN(c2nc(N(C)C)nc3c(S(=O)(=O)c4ccccc4F)c(N)[nH]c23)CCO1 (centres unmarked) [Example 270] , can you help?
Reply: 7.77

Continuing:
Task item: Reported pEC50, molecule CSc1nc(N2CCOC(C(F)(F)F)C2)c2[nH]c(N)c(S(=O)(=O)c3ccccc3F)c2n1 (centres unmarked) [Example 301] : ____
Reply: 7.85

Task item: Using the record for Nc1[nH]c2c(C3=CCCCC3)ncnc2c1S(=O)(=O)c1ccccc1F [Example 38] , report its pEC50.
Reply: 7.80

Task item: Which pEC50 is listed for Cc1nc(N2CCOC(C)C2)c2[nH]c(N)c(S(=O)(=O)c3cc(F)ccc3F)c2n1 (centres unmarked) [Example 229] ?
Reply: 8.15

Task item: Reported pEC50 for CC(C)C1CN(c2ncnc3c(S(=O)(=O)c4ccccc4)c(N)[nH]c23)CCO1 (centres unmarked) [Example 184] : what is it?
Reply: 7.08

Task item: Would you mind telling me what pEC50 value was observed for Cc1nc(C2CCC(F)(F)CC2)c2[nH]c(N)c(S(=O)(=O)c3ccccc3)c2n1 [Example 183] ?
Reply: 6.76

Task item: Need pEC50 of Nc1[nH]c2c(N3CC4CCC(C3)O4)ncnc2c1S(=O)(=O)c1ccccc1 [Example 132] , thanks.
Reply: 5.82

Task item: Which pEC50 is listed for Nc1[nH]c2c(N3CCOC4(CCCC4)C3)ncnc2c1S(=O)(=O)c1ccccc1 [Example 102] ?
Reply: 7.74

====

Here the recorded EC50 is given for each entry.
molecular target: human GPR43 (Homo sapiens (Human)); experiment: Ca-Flux functional assay: determination of agonist/positive allosteric modulator (PAM) activity; conditions: CHO-K1 Gα16 cells stably expressing human GPR43; compound added with EC20 sodium acetate; intracellular Ca2+ by FLIPR; does not distinguish agonist from PAM
Write it as a number; the unit nM goes unstated.

Task item: Suppose we examine the molecule Nc1[nH]c2c(C3=CCCCC3)nccc2c1S(=O)(=O)c1ccccc1 ; what EC50 value has been reported?
Reply: 528

---
Task item: Request the reported EC50 associated with COc1ccc(F)c(S(=O)(=O)c2c(N)[nH]c3c(N4CCOC(C)C4)nc(C)nc23)c1 (centres unmarked)
Reply: 4

====

The following compounds are listed with their measured EC50 values.
molecular target: UniProtKB O15552; experiment: Ca-Flux functional assay: determination of agonist/positive allosteric modulator (PAM) activity; details: CHO-K1 Gα16 cells stably expressing human GPR43; compound added with EC20 sodium acetate; intracellular Ca2+ by FLIPR; does not distinguish agonist from PAM
Give the value; after it, write the unit.

Task item: Would you kindly share the measured EC50 for CN(Cc1cccc(Cl)c1)c1ncnc2c(S(=O)(=O)c3ccccc3)c(N)[nH]c12 ?
Reply: 41 nM

Task item: Which EC50 value belongs to Cc1nc(N2CCO[C@H](C)[C@H]2C)c2[nH]c(N)c(S(=O)(=O)c3ccccc3F)c2n1 ?
Reply: 16 nM

More entries:
Task item: // lookup EC50 for CC1CN(c2nc(C(F)(F)F)nc3c(S(=O)(=O)c4cccc(F)c4)c(N)[nH]c23)CCO1 (centres unmarked)
Reply: 68 nM

Task item: Quick one: EC50 for COC1CCCN(c2ncnc3c(S(=O)(=O)c4ccccc4)c(N)[nH]c23)C1 (centres unmarked) ?
Reply: 207 nM

Task item: Find the recorded EC50 belonging to Nc1[nH]c2c(N3CCO[C@@H](c4ccccc4)C3)ncnc2c1S(=O)(=O)c1ccccc1 and report it.
Reply: 93 nM

Task item: Quick one: EC50 of Cc1nc(Nc2ccc(Cl)cc2)c2[nH]c(N)c(S(=O)(=O)c3ccccc3F)c2n1 ?
Reply: 9 nM

Task item: Would you mind telling me what EC50 value was observed for Nc1[nH]c2c(C3CCCCC3)nncc2c1S(=O)(=O)c1ccccc1 ?
Reply: 256 nM

Task item: Can you look up the measured EC50 of CC1CCCCN1c1ncnc2c(S(=O)(=O)c3ccccc3)c(N)[nH]c12 (centres unmarked) for me?
Reply: 49 nM

====

Reported pEC50 is given for each of the following compounds.
target: human GPR43 (Homo sapiens (Human), UniProt O15552); test: Ca-Flux functional assay: determination of agonist/positive allosteric modulator (PAM) activity; type: cell-based; conditions: CHO-K1 Gα16 cells stably expressing human GPR43; compound added with EC20 sodium acetate; intracellular Ca2+ by FLIPR; does not distinguish agonist from PAM
Here pEC50 is given on a logarithmic scale as minus log10 of the concentration in mol/L.

Task item: Give the measured pEC50 of COc1ccc(S(=O)(=O)c2c(N)[nH]c3c(C4CCCCC4)ncnc23)cn1 .
Reply: 6.76

Task item: I'd like to know its pEC50. The compound in question is Nc1[nH]c2c(OCC3CCCCO3)ncnc2c1S(=O)(=O)c1ccccc1 (stereo not shown)
Reply: 5.52

====

target: human GPR43 (Homo sapiens (Human), UniProt O15552); experiment: Ca-Flux functional assay: determination of agonist/positive allosteric modulator (PAM) activity; details: CHO-K1 Gα16 cells stably expressing human GPR43; compound added with EC20 sodium acetate; intracellular Ca2+ by FLIPR; does not distinguish agonist from PAM
quantity.measured: EC50

Completed entries (count: 6):
Task item: Requested read-out: EC50. Entry: C=C(C)c1ncnc2c(S(=O)(=O)c3ccccc3)c(N)[nH]c12 [Example 12]
Reply: 355 nM

Task item: Tell me the measured EC50 of CCC1(CC)CN(c2ncnc3c(S(=O)(=O)c4ccccc4)c(N)[nH]c23)CCO1 [Example 103] , please.
Reply: 36 nM

Task item: Dear colleague, I am looking for the recorded EC50 of the following molecule: CC1(C)CN(c2nncc3c(S(=O)(=O)c4ccccc4F)c(N)[nH]c23)CCO1 [Example 234]
Reply: 69 nM

Task item: I would be grateful if you could share the reported EC50 for Cc1csc(COc2ncnc3c(S(=O)(=O)c4ccccc4)c(N)[nH]c23)n1 [Example 161] .
Reply: 1400 nM

Task item: Please report the recorded EC50 for CC1CN(c2ncnc3c(S(=O)(=O)c4ccc(C(F)(F)F)cc4)c(N)[nH]c23)CCO1 (centres unmarked) [Example 136] .
Reply: 118 nM

Task item: I have this molecule here, Nc1[nH]c2c(/C=C/C3CC3)ncnc2c1S(=O)(=O)c1ccccc1 [Example 11] , and I need its recorded EC50.
Reply: 112 nM

Continuing:
Task item: Query (molecule): Cc1nc(N2CCC(F)(F)CC2)c2[nH]c(N)c(S(=O)(=O)c3ccccc3F)c2n1 [Example 186] ; field requested: EC50
Reply: 14 nM

Task item: Can you share its EC50? I mean this molecule: Nc1[nH]c2c(C3=CCCCC3)cncc2c1S(=O)(=O)c1ccccc1 [Example 16]
Reply: 21 nM
